Value source: ChEMBL document CHEMBL3861984

Assign IC50 to each entry below.
- EXPERIMENTAL_SYSTEM: C-X-C chemokine receptor type 4 (Homo sapiens, UniProt P61073)
- Sequence (P61073 whole entry): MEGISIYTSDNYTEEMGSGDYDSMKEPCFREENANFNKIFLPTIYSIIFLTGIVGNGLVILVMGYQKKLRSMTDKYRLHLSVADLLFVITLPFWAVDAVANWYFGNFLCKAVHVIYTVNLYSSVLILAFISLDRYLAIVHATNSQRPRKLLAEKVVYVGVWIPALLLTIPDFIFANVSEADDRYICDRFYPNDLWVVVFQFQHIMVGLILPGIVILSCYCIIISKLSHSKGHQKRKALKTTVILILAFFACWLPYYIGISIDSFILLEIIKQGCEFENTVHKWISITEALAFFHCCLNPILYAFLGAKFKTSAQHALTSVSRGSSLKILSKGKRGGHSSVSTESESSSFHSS
- ASSAY_EXPLANATION: Displacement of biotinylated-TN14003 from CXCR4 in human MDA-MB-231 cells assessed as reduction in fluorescence preincubated for 10 mins followed by biotinylated-TN14003 addition measured after 30 mins by streptavidin-rhodamine staining based microscopic analysis
All answers are understood in nM, so give the number only.

Q: Provide measured IC50 on C-X-C chemokine receptor type 4 (Homo sapiens, UniProt P61073) for CCc1ccc(NCc2cccc(CNc3ccc(CC)cc3)n2)cc1 please.
A: 19.6

Q: Output reported IC50 of the compound c1cc(CN2CCOCC2)nc(CN2CCOCC2)c1 on C-X-C chemokine receptor type 4 (Homo sapiens, UniProt P61073).
A: 35.7

====

Assignment: determine reported inhibition for the given compounds.
- EXPERIMENTAL_SYSTEM: C-X-C chemokine receptor type 4 (Homo sapiens, UniProt P61073)
- ASSAY_EXPLANATION: Inhibition of CXCR4/CXCL12 interaction-mediated chemotaxis in human MDA-MB-231 cells assessed as inhibition of cell invasion at 100 nM after 22 hrs by hematoxylin/eosin dye-based matrigel assay relative to control

Q: Print C-X-C chemokine receptor type 4 (Homo sapiens, UniProt P61073) inhibition for CCc1ccccc1NCc1cccc(CNc2ccccc2CC)n1 .
A: 59%

Q: State inhibition (C-X-C chemokine receptor type 4 (Homo sapiens, UniProt P61073)) of Cc1cccc(NCc2cccc(CNc3cccc(C)c3)n2)c1 .
A: 60%

Q: Provide inhibition, tested on C-X-C chemokine receptor type 4 (Homo sapiens, UniProt P61073), for c1ccc(NCc2cccc(CNc3ccccc3)n2)cc1 .
A: < 1%

Q: Give inhibition only, for CCc1ccc(NCc2cccc(CNc3ccc(CC)cc3)n2)cc1 , using C-X-C chemokine receptor type 4 (Homo sapiens, UniProt P61073) data.
A: 64%

Q: Param request: inhibition | system C-X-C chemokine receptor type 4 (Homo sapiens, UniProt P61073) | item FC(F)(F)c1ccc(NCc2cccc(CNc3ccc(C(F)(F)F)cc3)n2)cc1
A: 52%

Q: Param request: inhibition | system C-X-C chemokine receptor type 4 (Homo sapiens, UniProt P61073) | item Clc1ccc(NCc2cccc(CNc3ccc(Cl)cc3)n2)cc1
A: 21%
